test: Clearance in mouse; assay type: ADME, organism-based; conditions: in vivo
observation type: clearance (mL/min/kg)
Give a bare numeral; the unit mL/min/kg is implied.

In the examples that follow, each entry is paired with its recorded clearance.
| entry smiles | observed |
| --- | --- |
| CC(C)[C@@H](C)[C@@]1(C)CC[C@]2(C)[C@H]3CC[C@@H]4[C@@]5(COC[C@@]4(C)[C@@H](OCC4(N)CCOCC4)[C@H](n4ncnc4-c4ccncc4)C5)C3=CC[C@@]2(C)[C@@H]1C(=O)O | 18 |
| CC(C)[C@@H](C)[C@@]1(C)CC[C@]2(C)[C@H]3CC[C@@H]4[C@@]5(COC[C@@]4(C)[C@@H](OC[C@](C)(N)C(C)(C)C)[C@H](n4ncnc4-c4ccncc4)C5)C3=CC[C@@]2(C)[C@@H]1C(=O)O | 14 |

Query string: Entry CC(C)[C@@H](C)[C@@]1(C)CC[C@]2(C)[C@H]3CC[C@@H]4[C@@]5(COC[C@@]4(C)[C@@H](OC[C@](C)(N)C(C)C)[C@H](n4ncnc4-c4ccncc4)C5)C3=CC[C@@]2(C)[C@@H]1C(=O)O has what clearance?
Result string: 17

###

experiment: Clearance in rat; type: ADME; details: in vivo
observation type: clearance (mL/min/kg)
Field: numeric (mL/min/kg). Do not append units.

// known answers, use as guide
| entry smiles | clearance [mL/min/kg] |
| --- | --- |
| CC(C)[C@@H](C)[C@@]1(C)CC[C@]2(C)[C@H]3CC[C@@H]4[C@@]5(COC[C@@]4(C)[C@@H](OCC4(N)CCOCC4)[C@H](n4ncnc4-c4ccncc4)C5)C3=CC[C@@]2(C)[C@@H]1C(=O)O | 20 |
| CC(C)[C@@H](C)[C@@]1(C)CC[C@]2(C)[C@H]3CC[C@@H]4[C@@]5(COC[C@@]4(C)[C@@H](OC[C@](C)(N)C(C)(C)C)[C@H](n4ncnc4-c4ccncc4)C5)C3=CC[C@@]2(C)[C@@H]1C(=O)O | 8 |

Now look at this one.
Query string: Would you mind telling me what clearance value was observed for CC(C)[C@@H](C)[C@@]1(C)CC[C@]2(C)[C@H]3CC[C@@H]4[C@@]5(COC[C@@]4(C)[C@@H](OC[C@](C)(N)C(C)C)[C@H](n4ncnc4-c4ccncc4)C5)C3=CC[C@@]2(C)[C@@H]1C(=O)O ?
Result string: 12

###

tested on: Aspergillus fumigatus; assay: Antifungal activity against Aspergillus fumigatus MF5668 infected in ip dosed DBA/2N mouse assessed as 90% mouse survival administered bid administered for 7 days starting from 15 to 30 mins post infection and measured up to 21 days; type: functional; conditions: 168 h, time 7 day
ED90 for assorted compounds
Give your result in mg/kg as a bare value.

| entry smiles | ED90, mg/kg |
| --- | --- |
| CC[C@H](C)C[C@H](C)CCCCCCCCC(=O)N[C@H]1C[C@@H](O)[C@@H](NCCN)NC(=O)[C@@H]2[C@@H](O)CCN2C(=O)[C@H]([C@H](O)CCN)NC(=O)[C@H]([C@H](O)[C@@H](O)c2ccc(O)cc2)NC(=O)[C@@H]2C[C@@H](O)CN2C(=O)[C@H]([C@@H](C)O)NC1=O | 0.83 |
| CC(C)[C@@H](C)[C@@]1(C)CC[C@]2(C)[C@H]3CC[C@@H]4[C@@]5(COC[C@@]4(C)[C@@H](OCC4(N)CCOCC4)[C@H](n4ncnc4-c4ccncc4)C5)C3=CC[C@@]2(C)[C@@H]1C(=O)O | 26 |
| CC(C)[C@@H](C)[C@@]1(C)CC[C@]2(C)[C@H]3CC[C@@H]4[C@@]5(COC[C@@]4(C)[C@@H](OC[C@](C)(N)C(C)C)[C@H](n4ncnc4-c4ccncc4)C5)C3=CC[C@@]2(C)[C@@H]1C(=O)O | 31 |

Field: next compound
Query string: ED90 lookup needed for CC(C)[C@@H](C)[C@@]1(C)CC[C@]2(C)[C@H]3CC[C@@H]4[C@@]5(COC[C@@]4(C)[C@@H](OC[C@](C)(N)C(C)(C)C)[C@H](n4ncnc4-c4ccncc4)C5)C3=CC[C@@]2(C)[C@@H]1C(=O)O , thanks.
Result string: 8.9

###

Reported bioavailability values for a set of molecules
experiment: Oral bioavailability in rat; assay type: ADME, organism-based; details: in vivo
Your answer should be a plain number; it is taken to be in %.

Example molecules with recorded bioavailability:
| entry smiles | observation type | observed |
| --- | --- | --- |
| CC(C)[C@@H](C)[C@@]1(C)CC[C@]2(C)[C@H]3CC[C@@H]4[C@@]5(COC[C@@]4(C)[C@@H](OC[C@](C)(N)C(C)(C)C)[C@H](n4ncnc4-c4ccncc4)C5)C3=CC[C@@]2(C)[C@@H]1C(=O)O | bioavailability | 23 |
| CC(C)[C@@H](C)[C@@]1(C)CC[C@]2(C)[C@H]3CC[C@@H]4[C@@]5(COC[C@@]4(C)[C@@H](OCC4(N)CCOCC4)[C@H](n4ncnc4-c4ccncc4)C5)C3=CC[C@@]2(C)[C@@H]1C(=O)O | bioavailability | 30 |

Consider the additional molecule presented here.
Query string: Which value of bioavailability has been reported for CC(C)[C@@H](C)[C@@]1(C)CC[C@]2(C)[C@H]3CC[C@@H]4[C@@]5(COC[C@@]4(C)[C@@H](OC[C@](C)(N)C(C)C)[C@H](n4ncnc4-c4ccncc4)C5)C3=CC[C@@]2(C)[C@@H]1C(=O)O in the records?
Result string: 28

###

Parameter Activity: see the listing below.
test system: Candida albicans; test: Antifungal activity against Candida albicans MY1055 infected in DBA/2 mouse model of disseminated candidiasis assessed as reduction in fungal burden in kidney by measuring log change in colony forming units at 6.25 mg/kg, po bid for 7 days by TOKA; type: functional; conditions: time 7 day
Please respond with the number in deltalog10CFU and leave the unit unwritten.

| entry smiles | Activity, deltalog10CFU |
| --- | --- |
| CN[C@@](C)(CO[C@H]1[C@H](n2ncnc2-c2cccnc2)C[C@@]23COC[C@]1(C)[C@@H]2CC[C@H]1C3=CC[C@@]2(C)[C@H](C(=O)O)[C@@](C)([C@H](C)C(C)C)CC[C@]12C)C(C)C | -1.1 |
| CC(C)[C@@H](C)[C@@]1(C)CC[C@]2(C)[C@H]3CC[C@@H]4[C@@]5(COC[C@@]4(C)[C@@H](OC[C@](C)(N)C(C)C)[C@H](n4ncnc4-c4ccncc4F)C5)C3=CC[C@@]2(C)[C@@H]1C(=O)O | -2.6 |
| CC(C)[C@@H](C)[C@@]1(C)CC[C@]2(C)[C@H]3CC[C@@H]4[C@@]5(COC[C@@]4(C)[C@@H](OC[C@](C)(N)C(C)C)[C@H](n4ncnc4-c4ccncc4)C5)C3=CC[C@@]2(C)[C@@H]1C(=O)O | -2.4 |

Consider the additional compound presented here.
Query string: Can you share its Activity? I mean this compound: CC(C)[C@@H](C)[C@@]1(C)CC[C@]2(C)[C@H]3CC[C@@H]4[C@@]5(COC[C@@]4(C)[C@@H](OC[C@H](N)C(C)(C)C)[C@H](n4ncnc4-c4ccncc4)C5)C3=CC[C@@]2(C)[C@@H]1C(=O)O
Result string: -1

###

assay: Clearance in dog; format: ADME, Canis lupus familiaris; conditions: in vivo
observation type: clearance (L/h/kg)
// note: answer is a bare numeric in L/h/kg

| entry smiles | observed |
| --- | --- |
| CC(C)[C@@H](C)[C@@]1(C)CC[C@]2(C)[C@H]3CC[C@@H]4[C@@]5(COC[C@@]4(C)[C@@H](OC[C@](C)(N)C(C)(C)C)[C@H](n4ncnc4-c4ccncc4)C5)C3=CC[C@@]2(C)[C@@H]1C(=O)O | 0.24 |

Now consider the entry below.
Query string: Looking for the measured clearance of CC(C)[C@@H](C)[C@@]1(C)CC[C@]2(C)[C@H]3CC[C@@H]4[C@@]5(COC[C@@]4(C)[C@@H](OC[C@](C)(N)C(C)C)[C@H](n4ncnc4-c4ccncc4)C5)C3=CC[C@@]2(C)[C@@H]1C(=O)O , can you help?
Result string: 0.36

###

Reported Activity values follow for various compounds
test system: Candida albicans; test: Antifungal activity against Candida albicans MY1055 infected in DBA/2 mouse model of disseminated candidiasis assessed as reduction in fungal burden in kidney by measuring log change in colony forming units at 12.5 mg/kg, po bid for 7 days by TOKA; format: functional; settings: time 7 day
Numeric answer only, unit deltalog10CFU assumed.

Would you please look over these solved cases?
| entry smiles | u | observed |
| --- | --- | --- |
| CC(C)[C@@H](C)[C@@]1(C)CC[C@]2(C)[C@H]3CC[C@@H]4[C@@]5(COC[C@@]4(C)[C@@H](OC[C@](C)(N)C(C)C)[C@H](n4ncnc4-c4ccnnc4)C5)C3=CC[C@@]2(C)[C@@H]1C(=O)O | deltalog10CFU | -1.2 |
| CC(C)[C@@H](C)[C@@]1(C)CC[C@]2(C)[C@H]3CC[C@@H]4[C@@]5(COC[C@@]4(C)[C@@H](OCC4(N)CCOCC4)[C@H](n4ncnc4-c4ccncc4)C5)C3=CC[C@@]2(C)[C@@H]1C(=O)O | deltalog10CFU | -3.1 |

Consider the additional compound presented here.
Query string: If you can, please state the reported Activity value of CC(C)[C@@H](C)[C@@]1(C)CC[C@]2(C)[C@H]3CC[C@@H]4[C@@]5(COC[C@@]4(C)[C@@H](OC[C@](C)(N)C(C)C)[C@H](n4ncnc4-c4ccncc4F)C5)C3=CC[C@@]2(C)[C@@H]1C(=O)O .
Result string: -2.5
